- test-system: GTPase HRas (Homo sapiens) (UniProt P01112)
- Sequence (P01112 whole entry, looked up): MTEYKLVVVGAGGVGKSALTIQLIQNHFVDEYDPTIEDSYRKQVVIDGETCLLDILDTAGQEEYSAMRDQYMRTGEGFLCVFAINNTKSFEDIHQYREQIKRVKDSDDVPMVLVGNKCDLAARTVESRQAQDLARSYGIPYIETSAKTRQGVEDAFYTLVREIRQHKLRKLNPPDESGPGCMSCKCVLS
- experiment-description: HRas wt fluorescent GTP binding changes, either direction – biochemical, wildtype, bead-based flow cytometry, multiplex, primary screen (AID 759);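 further: 0% = unlabeled GTP competition control and 100% = no-compound control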
- run-parameters: GST-Ras wt beads, Bodipy-FL-GTP binding, at 10 µM, actives lie on both sides
Screen size: about 190,000 compounds; about 270 (0.14%) were called active. Not shown: some 2% with an inconclusive outcome. The sample holds actives, similar compounds and a random draw of the others, so the mix is not that of the screen.
Consider the following compounds; for each one, report its GTP binding activity.
The figure you give is taken to be in %; do not add the unit.

GET GTP binding activity where system = GTPase HRas (Homo sapiens) (UniProt P01112) and item = Cc1[nH]c2c(C(=O)N3CCCC(CCC(=O)NCc4ccccc4F)C3)cccc2c1C (centres undefined)
106

GET GTP binding activity where system = GTPase HRas (Homo sapiens) (UniProt P01112) and item = `CCCCn1nc(C(=O)Nc2ccc(S(=O)(=O)Nc3ncccn3)cc2)c2ccccc2c1=O`
98

GET GTP binding activity where system = GTPase HRas (Homo sapiens) (UniProt P01112) and item = `CC(=O)c1sc(NC(=O)C2=NN(c3ccccc3)C(=O)CC2)nc1C`
98

GET GTP binding activity where system = GTPase HRas (Homo sapiens) (UniProt P01112) and item = `COC(=O)Cc1c(O)ccn(Cc2cccc(C(F)(F)F)c2)c1=O`
96
